B1: CLCN6 (parent)
chain: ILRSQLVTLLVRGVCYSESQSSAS

variants of: B1; assay: protein stability index of a GFP-peptide fusion (GPS, HEK-293T) (PSI 1-6); higher = more stable; settings: c terminus: a fixed tail appended;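 also: lentivirally expressed fusions sorted by FACS into six bins by GFP to DsRed ratio, PSI derived from sequencing read proportions per bin multiplied by bin number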
Each record gets a class by protein stability index: lower level: < 2; middle level: ≥ 2 and < 3; upper level: ≥ 3

{"columns": ["record_sequence", "assigned_category"],
 "data": [
  ["ILRSQLVTQLVRGVCYSESQSSAS [L9Q]", "lower level"]
]}

Sort ILRSQLVTLVVRGVCYSESQSSAS [L10V] into one of the categories.
lower level

Sort ILRSQLVTLLVRRVCYSESQSSAS [G13R] into one of the categories.
upper level

Sort ILRSQLVTLLVRGVCYSESQSSAP [S24P] into one of the categories.
upper level
